Molecular target: T1, Taf14 YEATS domain (yeast, UniProt P35189 1-137)
T1 chain: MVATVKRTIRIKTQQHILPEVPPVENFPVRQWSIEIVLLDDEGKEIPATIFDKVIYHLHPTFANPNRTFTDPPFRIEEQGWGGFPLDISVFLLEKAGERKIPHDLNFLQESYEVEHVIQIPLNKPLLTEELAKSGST
Where no end group is shown, it is not given here. The star is where a group is joined. Crotonyl(E) = C/C=C/C(=O)*; Butyryl = CCCC(=O)*
measurement.type: Kd

These solved cases illustrate the format of a correct answer.
binder	result
QTARK(Crotonyl(E))STGG (peptide, UniProt P68431 6-14, looked up, histone H3, residues 5-13, K9 crotonylated; also called H3K9cr (5-13); source: bought: Synpeptide) [histone H3K9cr peptide (aa 5-13)]	9 µM
QTARK(Butyryl)STGG (peptide, UniProt P68431 6-14, looked up, histone H3, residues 5-13, K9 butyrylated; also called H3K9bu (5-13); source: bought: Synpeptide) [histone H3K9bu peptide (aa 5-13)]	28 µM

Lab note: next binder to report on.
Given the entry QTARK(Ac)STGG (peptide, UniProt P68431 6-14, looked up, histone H3, residues 5-13, K9 acetylated; source: bought: Synpeptide) [histone H3K9ac peptide (aa 5-13)] , report its measured Kd.
130 µM
